Source: patent EP2025683A1

Target: T1, human prolactin receptor (human, UniProt P16471 25-622)
T1 sequence (looked up): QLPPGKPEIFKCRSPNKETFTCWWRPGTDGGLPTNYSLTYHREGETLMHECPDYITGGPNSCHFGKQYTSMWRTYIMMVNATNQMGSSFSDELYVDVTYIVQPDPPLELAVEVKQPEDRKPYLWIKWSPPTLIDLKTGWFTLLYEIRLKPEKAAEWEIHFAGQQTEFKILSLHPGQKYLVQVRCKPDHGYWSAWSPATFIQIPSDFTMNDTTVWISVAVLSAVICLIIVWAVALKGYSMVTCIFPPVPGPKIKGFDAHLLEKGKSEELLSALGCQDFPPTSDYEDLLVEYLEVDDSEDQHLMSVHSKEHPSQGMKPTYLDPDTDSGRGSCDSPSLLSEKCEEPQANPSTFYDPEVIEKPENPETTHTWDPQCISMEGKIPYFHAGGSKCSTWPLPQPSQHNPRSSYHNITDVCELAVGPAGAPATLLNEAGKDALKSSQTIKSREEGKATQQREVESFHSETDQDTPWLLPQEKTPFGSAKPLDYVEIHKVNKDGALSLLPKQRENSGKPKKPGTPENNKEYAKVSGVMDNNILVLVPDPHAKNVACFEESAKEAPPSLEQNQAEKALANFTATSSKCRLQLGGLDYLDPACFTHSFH
Experiment: cell-based or functional assay
property: Antagonism HL-5 cells IC50 (nM)
Form entry: value (nM) — number only.

{"columns": ["binder", "property", "unit_of_measure", "measured_number"],
 "data": [
  ["G129R-hPRL (ligand, human, UniProt P01236 29-227, looked up, mature) LPICPGGAARCQVTLRDLFDRAVVLSHYIHNLSSEMFSEFDKRYTHGRGFITKAINSCHTSSLATPEDKEQAQQMNQKDFLSLIVSILRSWNEPLYHLVTEVRGMQEAPEAILSKAVEIEEQTKRLLERMELIVSQVHPETKENEIYPVWSGLPSLQMADEESRLSAYYNLLHCLRRDSHKIDNYLKLLKCRIIHNNNC", "Antagonism HL-5 cells IC50", "nM", 200],
  ["G129Y-hPRL (ligand, human, UniProt P01236 29-227, looked up) LPICPGGAARCQVTLRDLFDRAVVLSHYIHNLSSEMFSEFDKRYTHGRGFITKAINSCHTSSLATPEDKEQAQQMNQKDFLSLIVSILRSWNEPLYHLVTEVRGMQEAPEAILSKAVEIEEQTKRLLEYMELIVSQVHPETKENEIYPVWSGLPSLQMADEESRLSAYYNLLHCLRRDSHKIDNYLKLLKCRIIHNNNC", "Antagonism HL-5 cells IC50", "nM", 190]
]}

Shifting focus to the binder that follows.
-- ask Query: Antagonism HL-5 cells IC50; subject: G129D-hPRL (ligand, human, UniProt P01236 29-227, looked up) LPICPGGAARCQVTLRDLFDRAVVLSHYIHNLSSEMFSEFDKRYTHGRGFITKAINSCHTSSLATPEDKEQAQQMNQKDFLSLIVSILRSWNEPLYHLVTEVRGMQEAPEAILSKAVEIEEQTKRLLEDMELIVSQVHPETKENEIYPVWSGLPSLQMADEESRLSAYYNLLHCLRRDSHKIDNYLKLLKCRIIHNNNC
-- reply 340
